target: Neurogenic locus notch homolog protein 3 (Homo sapiens) (UniProt Q9UM47); assay: NOTCH3 binders on small-molecule microarray, primary screen, biochemical, 635/667 nm fluorescence (AID 1096); conditions: NOTCH3 binding, 635 nm fluorescence, higher = more signal
Sequence (Q9UM47 whole entry, looked up): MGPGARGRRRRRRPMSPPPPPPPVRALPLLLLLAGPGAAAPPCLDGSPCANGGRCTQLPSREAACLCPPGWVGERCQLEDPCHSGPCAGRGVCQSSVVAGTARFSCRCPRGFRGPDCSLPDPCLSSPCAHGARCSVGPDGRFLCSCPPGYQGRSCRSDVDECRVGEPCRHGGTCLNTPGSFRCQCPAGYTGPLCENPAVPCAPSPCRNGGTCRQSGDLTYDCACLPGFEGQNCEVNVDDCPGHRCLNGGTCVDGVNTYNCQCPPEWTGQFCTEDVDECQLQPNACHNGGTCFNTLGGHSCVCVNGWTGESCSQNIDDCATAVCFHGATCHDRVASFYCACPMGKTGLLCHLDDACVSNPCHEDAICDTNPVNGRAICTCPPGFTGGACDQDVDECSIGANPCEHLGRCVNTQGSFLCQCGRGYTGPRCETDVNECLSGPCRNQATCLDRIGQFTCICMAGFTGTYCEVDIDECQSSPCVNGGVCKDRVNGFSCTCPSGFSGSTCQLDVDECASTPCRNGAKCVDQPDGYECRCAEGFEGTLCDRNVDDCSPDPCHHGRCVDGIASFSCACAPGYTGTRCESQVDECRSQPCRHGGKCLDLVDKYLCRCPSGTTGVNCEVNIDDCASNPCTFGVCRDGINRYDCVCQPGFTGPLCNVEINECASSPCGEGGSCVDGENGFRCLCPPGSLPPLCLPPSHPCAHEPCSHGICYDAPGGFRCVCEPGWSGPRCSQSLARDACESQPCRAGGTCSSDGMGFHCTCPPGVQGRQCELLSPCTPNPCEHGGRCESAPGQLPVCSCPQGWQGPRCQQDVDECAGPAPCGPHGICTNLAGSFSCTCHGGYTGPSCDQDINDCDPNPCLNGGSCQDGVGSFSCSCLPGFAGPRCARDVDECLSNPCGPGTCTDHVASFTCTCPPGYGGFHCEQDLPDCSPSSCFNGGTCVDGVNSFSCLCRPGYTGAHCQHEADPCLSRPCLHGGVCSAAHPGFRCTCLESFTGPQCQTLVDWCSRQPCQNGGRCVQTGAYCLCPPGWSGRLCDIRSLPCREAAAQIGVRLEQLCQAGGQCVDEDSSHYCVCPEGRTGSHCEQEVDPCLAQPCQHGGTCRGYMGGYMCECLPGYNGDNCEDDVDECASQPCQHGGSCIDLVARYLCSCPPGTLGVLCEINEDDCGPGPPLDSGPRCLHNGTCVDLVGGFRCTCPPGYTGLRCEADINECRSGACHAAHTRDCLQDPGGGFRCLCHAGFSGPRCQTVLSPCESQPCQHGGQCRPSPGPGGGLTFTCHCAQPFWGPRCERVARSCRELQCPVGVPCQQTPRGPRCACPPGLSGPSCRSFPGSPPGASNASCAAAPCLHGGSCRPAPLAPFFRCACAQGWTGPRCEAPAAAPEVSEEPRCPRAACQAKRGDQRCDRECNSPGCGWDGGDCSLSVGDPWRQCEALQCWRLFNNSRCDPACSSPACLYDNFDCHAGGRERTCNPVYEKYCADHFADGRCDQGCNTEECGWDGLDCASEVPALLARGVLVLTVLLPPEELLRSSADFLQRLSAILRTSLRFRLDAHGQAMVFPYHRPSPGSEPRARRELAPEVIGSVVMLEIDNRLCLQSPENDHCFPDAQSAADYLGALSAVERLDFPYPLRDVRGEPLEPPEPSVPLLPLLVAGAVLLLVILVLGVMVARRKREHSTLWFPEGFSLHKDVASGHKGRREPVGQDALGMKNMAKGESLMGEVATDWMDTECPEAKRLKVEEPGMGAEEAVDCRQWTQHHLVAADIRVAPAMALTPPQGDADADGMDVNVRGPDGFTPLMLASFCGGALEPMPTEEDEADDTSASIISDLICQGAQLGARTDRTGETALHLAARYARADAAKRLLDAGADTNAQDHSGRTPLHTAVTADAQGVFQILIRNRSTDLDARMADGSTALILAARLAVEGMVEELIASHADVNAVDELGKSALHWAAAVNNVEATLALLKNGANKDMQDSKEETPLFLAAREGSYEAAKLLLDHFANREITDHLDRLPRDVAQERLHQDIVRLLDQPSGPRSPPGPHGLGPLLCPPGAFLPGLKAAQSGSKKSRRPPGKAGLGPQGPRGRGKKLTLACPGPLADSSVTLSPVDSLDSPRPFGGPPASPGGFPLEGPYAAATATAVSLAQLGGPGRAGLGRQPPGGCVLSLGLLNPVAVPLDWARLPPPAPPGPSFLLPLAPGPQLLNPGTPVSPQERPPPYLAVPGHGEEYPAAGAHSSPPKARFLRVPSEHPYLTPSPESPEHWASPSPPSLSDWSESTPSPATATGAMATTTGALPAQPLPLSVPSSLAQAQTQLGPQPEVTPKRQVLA
Mark true (1) for reported composite z-score of 0.3 or greater; mark false (0) for anything smaller.

Use these answered entries as a reference point.
Molecule: CC(C)=CCCC(C)=CCON=C1C[C@@H](O)[C@@H](O)[C@@H]2[C@@H]3C(=O)N(c4cccc(Oc5ccccc5)c4)C(=O)[C@@H]3CC[C@H]12
Class label: true (1)

Molecule: CCN1C(=O)[C@H]2[C@H]3[C@H](O)[C@H](O)CC(=NNC(=O)OCc4ccccc4)[C@@H]3CC[C@H]2C1=O
Class label: false (0)

Molecule: CC(C)(C)N1C(=O)[C@H]2[C@@H]3C(=CC[C@H]2C1=O)C(=O)[C@H]1O[C@H]1[C@H]3O
Class label: false (0)

Proceed to the following item.
# bool: composite z-score of `CCCNC(=O)OC[C@H]1O[C@H](CCON=C2c3cc(OC)ccc3O[C@H](c3cccc(OC)c3)[C@H]2O)C=C[C@@H]1Oc1ccc(OC)cc1` >= 0.3 true (1)
